Tested on: MDA-MB-231
Assay: Antiproliferative activity against human MDA-MB-231 cells assessed as inhibition of cell growth incubated for 24 hrs by CCK8 assay
Type: functional, cell-based
Settings: MDA-MB-231, 24 h
Measured IC50 of individual entries
Enter your answer as a number in µM; do not include the unit.

CC1CCN(c2cc3nc4c5ccc(N6CCN(C)CC6)cc5c5cc(N6CCN(C)CC6)ccc5c4nc3cc2F)CC1 | 9.8
CN1CCN(c2ccc3c(c2)c2cc(N4CCN(C)CC4)ccc2c2nc4cc(C(F)(F)F)ccc4nc32)CC1 | 5.6
CN1CCN(c2ccc(-c3nc4cc(F)c(F)cc4nc3-c3ccc(N4CCN(C)CC4)cc3)cc2)CC1 | 1.9

INPUT: What measured IC50 goes with `CN1CCN(c2ccc3c(c2)c2cc(N4CCN(C)CC4)ccc2c2nc4ccccc4nc32)CC1` ?
OUTPUT: 1.1

INPUT: One more compound: `CN1CCN(c2ccc3c(c2)c2cc(N4CCN(C)CC4)ccc2c2nc4cc5c(cc4nc32)N(C)CCN5C)CC1`
OUTPUT: 3.1

INPUT: Input `COc1cc2nc3c4ccc(N5CCN(C)CC5)cc4c4cc(N5CCN(C)CC5)ccc4c3nc2cc1OC`
OUTPUT: 16.8

INPUT: Moving on to the next compound: `CN1CCN(c2ccc3c(c2)c2cc(N4CCN(C)CC4)ccc2c2nc4cc(F)ccc4nc32)CC1`
OUTPUT: 1.1

INPUT: Would you mind doing `CN1CCN(c2ccc3c(c2)c2cc(N4CCN(C)CC4)ccc2c2nc4cnccc4nc32)CC1` as well?
OUTPUT: 17.5

---

Target: DNA topoisomerase 1 (Homo sapiens) (UniProt P11387)
Sequence (P11387 whole entry): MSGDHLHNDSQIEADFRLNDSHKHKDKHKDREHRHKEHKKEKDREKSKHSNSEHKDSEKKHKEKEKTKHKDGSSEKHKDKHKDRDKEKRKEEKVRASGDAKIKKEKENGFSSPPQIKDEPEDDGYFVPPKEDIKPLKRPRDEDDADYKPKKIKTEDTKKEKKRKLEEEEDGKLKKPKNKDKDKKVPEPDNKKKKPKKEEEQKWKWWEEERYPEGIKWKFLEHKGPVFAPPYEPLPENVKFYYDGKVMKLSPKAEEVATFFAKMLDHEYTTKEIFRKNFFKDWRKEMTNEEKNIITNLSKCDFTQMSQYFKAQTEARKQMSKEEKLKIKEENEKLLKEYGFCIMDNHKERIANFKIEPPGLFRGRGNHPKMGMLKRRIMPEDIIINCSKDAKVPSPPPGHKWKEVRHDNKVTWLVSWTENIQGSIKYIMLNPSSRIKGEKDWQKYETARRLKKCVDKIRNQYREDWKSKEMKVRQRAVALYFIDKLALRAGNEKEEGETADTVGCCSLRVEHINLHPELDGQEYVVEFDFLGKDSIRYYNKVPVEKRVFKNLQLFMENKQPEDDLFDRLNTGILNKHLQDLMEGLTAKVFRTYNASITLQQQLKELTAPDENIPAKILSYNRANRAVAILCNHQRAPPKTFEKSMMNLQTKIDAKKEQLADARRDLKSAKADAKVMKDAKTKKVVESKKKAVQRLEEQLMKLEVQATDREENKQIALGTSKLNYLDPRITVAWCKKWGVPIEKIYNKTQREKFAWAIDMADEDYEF
Assay: Inhibition of human topoisomerase 1 mediated relaxation of supercoiled pHOT1 DNA at 5 to 20 uM incubated for 30 mins by agarose gel electrophoresis
Conditions: dose 5-20 µM
Activity calls are given as the source filed them. The rule behind the calls is not given here.
experimental_readout: inhibition

CN1CCN(c2ccc3c(c2)c2cc(N4CCN(C)CC4)ccc2c2nc4cc(F)c(F)cc4nc32)CC1 | Active
CN1CCN(c2ccc3c(c2)c2cc(N4CCN(C)CC4)ccc2c2nc4cc(F)ccc4nc32)CC1 | Active
Cc1cc2nc3c4ccc(N5CCN(C)CC5)cc4c4cc(N5CCN(C)CC5)ccc4c3nc2cc1C | Active

---

Each record here notes measured IC50.
Tested on: MDA-MB-231
Test: Antiproliferative activity against human MDA-MB-231 cells assessed as inhibition of cell growth incubated for 24 hrs by CCK8 assay
Assay type: functional, cell-based
Conditions: MDA-MB-231, 24 h
Put down the number, then write its unit next to it.

// below: answered molecules
Cc1cc2nc3c4ccc(N5CCN(C)CC5)cc4c4cc(N5CCN(C)CC5)ccc4c3nc2cc1C | 2700 nM
CN1CCN(c2ccc3c(c2)c2cc(N4CCN(C)CC4)ccc2c2nc4cc(F)c(F)cc4nc32)CC1 | 2100 nM
CN1CCN(c2ccc3c(c2)c2cc(N4CCN(C)CC4)ccc2c2nc4cc(Oc5ccccc5)ccc4nc32)CC1 | 2200 nM

// below: IC50 requested for another molecule
INPUT: # get_value(readout='IC50', item= `CN1CCN(c2ccc3c(c2)c2cc(N4CCN(C)CC4)ccc2c2nc4cc5ccccc5cc4nc32)CC1` )
OUTPUT: 5400 nM
